# tgt: T1, human matriptase-2 ECD protein his tag (human, UniProt Q8IU80 78-811)
# T1 construct: also called human MTP-2 ECD; huMTP-2
# T1 sequence: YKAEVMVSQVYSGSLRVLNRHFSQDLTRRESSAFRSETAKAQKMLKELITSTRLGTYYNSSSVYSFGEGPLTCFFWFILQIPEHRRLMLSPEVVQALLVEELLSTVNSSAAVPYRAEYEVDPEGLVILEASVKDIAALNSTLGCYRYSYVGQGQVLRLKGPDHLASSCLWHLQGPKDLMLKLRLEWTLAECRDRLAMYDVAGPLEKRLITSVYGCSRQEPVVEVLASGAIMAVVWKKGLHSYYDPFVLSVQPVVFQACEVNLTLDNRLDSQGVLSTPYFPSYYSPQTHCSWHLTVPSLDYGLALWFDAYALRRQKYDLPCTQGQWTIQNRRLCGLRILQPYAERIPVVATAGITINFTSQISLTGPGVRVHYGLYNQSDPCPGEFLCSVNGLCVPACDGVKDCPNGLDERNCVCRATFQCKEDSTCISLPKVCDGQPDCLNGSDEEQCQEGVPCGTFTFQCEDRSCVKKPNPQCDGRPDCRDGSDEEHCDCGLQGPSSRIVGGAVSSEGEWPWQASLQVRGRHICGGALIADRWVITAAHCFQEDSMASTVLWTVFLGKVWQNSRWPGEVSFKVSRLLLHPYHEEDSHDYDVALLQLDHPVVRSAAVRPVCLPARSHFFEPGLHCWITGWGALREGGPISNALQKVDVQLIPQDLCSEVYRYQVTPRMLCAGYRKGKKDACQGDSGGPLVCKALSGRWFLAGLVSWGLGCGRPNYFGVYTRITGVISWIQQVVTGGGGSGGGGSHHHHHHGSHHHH
# method.description: SPR (Biacore 8K), huIgG4PE captured on anti-human Fc, MTP-2 ECD as analyte, 1:1 fit
endpoint.label: Binding Late top conc
Answers are plain numbers.

The examples below pair each entry with its known result.
• NORI-012 (antibody, human IgG4 S228P, lambda, V domains shown, human IgG4PE, lambda) VH: EVQLVESGGGLVQPGRSLRLSCAASGFTFDDHVMYWVRQAPGKGLEWVSGISWNSDTIGYADAVKGRFTISRDNAKNVLYLHMNSLRPEDTALYYCAREKDGDFYYNYFVMDVWGQGTTVTVSP VL: QSALTQPPSASGSPGQSVTISCTGTSSDVGFYNFVSWYQQHPDKAPKVMIYEVSKRPSGVPDRFSGSKSGNTASLTVSGLQAEDEADYYCSSYAGSNKVVFGGGTKLTVLG = 8.5
• NORI-009 (antibody, human IgG4 S228P, lambda, V domains shown, human IgG4PE, lambda) VH: EVQLVESGGGLVQPGRSLRLSCAASGFTFNDHVIYWVRQVPGKGLEWVSTISWNSDTIAYADSVKGRFTISRDNAKNALYLQMNSLRTEDTALYYCAREKDGDFYYDYFAMDVWGQGTTVTVSS VL: QSALTQPPSASGSPGQSVTLSCTGTSSDVGYYNYVSWYLQHPGKAPKLMIYEVSKRPSGVPDRFSGSKSANTASLTVSGLQAEDEADYYCSSYAGSNKVVFGGGTKVTVLG = 8.6
• NORI-013 (antibody, human IgG4 S228P, lambda, V domains shown, human IgG4PE, lambda) VH: EVQLVESGGGLIQAGRSLRLSCAASGFTFDEHVIYWVRQIPGKGLEWISSISWKSDIIAYADSVKGRFTISRDNAKNALYLQMNSLRAEDTALYYCAREKDGDFYYYYFAMDVWGQGTTVTVSS VL: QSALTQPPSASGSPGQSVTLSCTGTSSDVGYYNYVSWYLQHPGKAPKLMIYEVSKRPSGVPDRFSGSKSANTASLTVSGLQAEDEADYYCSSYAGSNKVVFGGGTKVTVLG = 14.6
• NORI-008 (antibody, human IgG4 S228P, kappa, V domains shown, human IgG4PE, kappa, in the in vitro assays; a mouse IgG1 format was used in one in vivo study only; also called NORI-008 hulgG4PE; NORI-008 IgG) VH: QVQLQESGPGLVKPSETLSLTCSVSGGSVSSGRYYWTWIRQPPGKGLEWIGYISNSGNTNYNPSLKSRVTISLDTSKKQFSLSLSAVTAADTAVYYCARGFIYDYWFDPWGQGSLVTVSS VL: DSQMTQSPSSLSASVGDRVTITCQASQDIDNYLNWYQQRPGKAPKLLIYDASKLETGVPSRFSGSGSGTDFTFTISSLQPEDFATYYCQQYGNLPITFGQGTRLDIKR = 35.8

What measured Binding Late top conc goes with NORI-014 (antibody, human IgG4 S228P, lambda, V domains shown, human IgG4PE, lambda) VH: EVQLVESGGGLIQAGRSLRLSCAASGFTFDEHVMYWVRQIPGKGLEWISSITWKSDIIAYADSVKGRFTISRDNAKNALYLQMNSLRAEDTALYYCAREKDGDFYYYYFAMDVWGQGTTVTVSS VL: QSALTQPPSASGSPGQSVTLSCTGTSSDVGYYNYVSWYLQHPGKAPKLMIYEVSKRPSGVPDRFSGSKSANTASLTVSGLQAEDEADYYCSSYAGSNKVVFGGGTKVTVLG ?
10.7
